Just for reference, PubChem BioAssay AID493016 is where these values come from.

System: HEp-2 RSV Long CPE inhibition, luminescence
Test: RSV cytopathic effect inhibition, dose response, cell-based, HEp-2, RSV Long, synthesized compounds, set 4 (AID 493016)
Active and inactive are the calls of the source.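 Rule for the calls: active = compounds blocking at least half of virus-caused cell death at some tested dose; inactive = the rest.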
Possible outcomes: true = active, false = inactive

CC(C)c1ccccc1NC(=O)[C@@H]1CCCN1S(=O)(=O)c1cccc2cccnc12: true
Cc1ccc2c(c1)CCN2C(=O)[C@@H]1CCCN1S(=O)(=O)c1cccc2cccnc12: false
Cc1ccc(NC(=O)[C@@H]2CCCN2S(=O)(=O)c2cccc3cccnc23)c(C)n1: false
COc1ccccc1CNC(=O)C1CCN(S(=O)(=O)c2cccc3nonc23)CC1: true
O=C(Nc1ccccc1)[C@@H]1CCCN1S(=O)(=O)c1cccc2cccnc12: false
O=C([C@@H]1CCCN1S(=O)(=O)c1cccc2cccnc12)N1CCc2ccccc21: false
